Just for reference, BindingDB's records for patent US20250059156 is where these values come from.

Consider compounds characterized by their IC50 with Sodium-dependent serotonin transporter (Homo sapiens).
Sequence (P31645 whole entry): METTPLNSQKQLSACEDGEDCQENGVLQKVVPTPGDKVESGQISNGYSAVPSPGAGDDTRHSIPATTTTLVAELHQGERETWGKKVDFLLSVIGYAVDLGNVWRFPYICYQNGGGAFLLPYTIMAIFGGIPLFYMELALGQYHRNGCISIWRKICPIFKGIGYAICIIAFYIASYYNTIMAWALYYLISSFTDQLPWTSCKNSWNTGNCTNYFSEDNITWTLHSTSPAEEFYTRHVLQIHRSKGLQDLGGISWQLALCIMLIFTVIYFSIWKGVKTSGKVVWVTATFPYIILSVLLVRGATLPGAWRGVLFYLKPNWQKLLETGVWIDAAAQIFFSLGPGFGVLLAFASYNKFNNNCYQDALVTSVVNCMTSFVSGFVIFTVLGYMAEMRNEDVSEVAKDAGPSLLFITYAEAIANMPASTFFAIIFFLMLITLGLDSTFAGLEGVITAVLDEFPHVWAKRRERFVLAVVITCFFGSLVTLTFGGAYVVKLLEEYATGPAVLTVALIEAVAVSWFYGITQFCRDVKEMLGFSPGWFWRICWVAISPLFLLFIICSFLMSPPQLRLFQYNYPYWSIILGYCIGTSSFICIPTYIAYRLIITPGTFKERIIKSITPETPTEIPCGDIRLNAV

[
  {
    "CHEMICAL SMILES": "COc1ccc([C@@]23CCN(C)[C@@H]2[C@@H]2CCC[C@H]3CC2=O)cc1OC",
    "IC50": "< 50 nM"
  }
]

Now for another entry.
Observed IC50 on Sodium-dependent serotonin transporter (Homo sapiens) for `COc1ccc([C@]23CCN(C)[C@H]2[C@H]2CCC[C@@H]3CC2=O)cc1OC` , please.
100 to 500 nM
